Listing: Testosterone level in Blood of selected substances
Experiment: Action of reducing testosterone level in blood in mature male rat (1 mM peptide in 50% DMSO, ALZET osmotic pump)
Type: in vivo
Conditions: 1 mM peptide in 50% DMSO aqueous solution, ALZET osmotic pump s.c., six days
Non-standard residues stand in square brackets, D forms with d. No end group written: not given here. Arg(Me) = CNC(=N)NCCC[C@H](N)C(=O)O; azaGly = NNC(=O)O
Just the number in %, nothing appended.

Which Testosterone level in Blood value is on record for D-Tyr-D-Tyr-D-Trp-Asn-Thr-Phe-AzaGly-Leu-Arg(Me)-Trp-NH2 ([dY][dY][dW]NTF[azaGly]L[Arg(Me)]W-NH2; N-terminus assumed; SMILES CNC(=N)NCCC[C@H](NC(=O)[C@H](CC(C)C)NC(=O)NNC(=O)[C@H](Cc1ccccc1)NC(=O)[C@@H](NC(=O)[C@H](CC(N)=O)NC(=O)[C@@H](Cc1c[nH]c2ccccc12)NC(=O)[C@@H](Cc1ccc(O)cc1)NC(=O)[C@H](N)Cc1ccc(O)cc1)[C@@H](C)O)C(=O)N[C@@H](Cc1c[nH]c2ccccc12)C(N)=O) [Compound No. 650] ?
2

Which Testosterone level in Blood value is on record for D-Tyr-D-Pya(4)-Asn-Thr-Phe-AzaGly-Leu-Arg(Me)-Trp-NH2 [Compound No. 501] ?
2

Which Testosterone level in Blood value is on record for Ac-Tyr-D-Tyr-D-Trp-Asn-Thr-Phe-AzaGly-Leu-Arg(Me)-Trp-NH2 (Ac-Y[dY][dW]NTF[azaGly]L[Arg(Me)]W-NH2; SMILES CNC(=N)NCCC[C@H](NC(=O)[C@H](CC(C)C)NC(=O)NNC(=O)[C@H](Cc1ccccc1)NC(=O)[C@@H](NC(=O)[C@H](CC(N)=O)NC(=O)[C@@H](Cc1c[nH]c2ccccc12)NC(=O)[C@@H](Cc1ccc(O)cc1)NC(=O)[C@H](Cc1ccc(O)cc1)NC(C)=O)[C@@H](C)O)C(=O)N[C@@H](Cc1c[nH]c2ccccc12)C(N)=O) [Compound No. 676] ?
2

* * *

Molecular target: hOT7T175 (Homo sapiens, UniProt Q969F8, L364H)
Construct: expressed in transfected cells
Sequence (Q969F8 whole entry L364H): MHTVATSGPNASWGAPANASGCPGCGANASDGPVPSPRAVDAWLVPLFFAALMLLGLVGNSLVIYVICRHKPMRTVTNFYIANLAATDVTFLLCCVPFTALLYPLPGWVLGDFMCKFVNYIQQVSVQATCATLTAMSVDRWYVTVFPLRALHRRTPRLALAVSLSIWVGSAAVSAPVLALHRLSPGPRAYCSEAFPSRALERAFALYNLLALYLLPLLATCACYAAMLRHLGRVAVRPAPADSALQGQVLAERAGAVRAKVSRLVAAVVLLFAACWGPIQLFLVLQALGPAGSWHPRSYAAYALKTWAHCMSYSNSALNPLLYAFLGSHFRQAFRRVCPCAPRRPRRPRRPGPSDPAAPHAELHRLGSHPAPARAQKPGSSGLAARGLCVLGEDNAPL
Type: cell-based
Settings: hOT7T175/CHO, FLIPR, evaluation for 40 seconds after initiation of the reaction
Starred links: 1 amine or outer side, 2 acyl side, 3 side chain; linkers in the order of their positions; H or OH if unused. Non-standard residues stand in square brackets, D forms with d. Residues, ends and D or L forms follow the SMILES beside them. *: point of attachment. X1 = NC(=O)C[C@@H](C(=O)[*:2])N(C[C@@H](N)Cc1ccc(O)cc1)[*:1]; Propanoyl(3-(3-pyridyl)) = O=C(CCc1cccnc1)*; Arg(Me) = CNC(=N)NCCC[C@H](N)C(=O)O; d4Pal = N[C@H](Cc1ccncc1)C(=O)O; azaGly = NNC(=O)O
Listing: Specific Act. (EC50/MS10 EC50) of selected compounds

Worked cases, answers included:
CC(C)C[C@H](NC(=O)CNC(=O)[C@H](Cc1ccccc1)NC(=O)[C@H](CO)NC(=O)[C@H](CC(N)=O)NC(=O)[C@H](Cc1c[nH]c2ccccc12)NC(=O)[C@H](CC(N)=O)NC[C@@H](N)Cc1ccc(O)cc1)C(=O)N[C@@H](CCCNC(=N)N)C(=O)N[C@@H](Cc1ccccc1)C(N)=O [Compound No. 294] (H-[X1]WNSFGLRF-NH2)    0.7
CNC(=N)NCCC[C@H](NC(=O)[C@H](CC(C)C)NC(=O)NNC(=O)[C@H](Cc1ccccc1)NC(=O)[C@H](CO)NC(=O)[C@H](CC(N)=O)NC(=O)[C@@H](Cc1ccncc1)NC(=O)[C@H](N)Cc1ccc(O)cc1)C(=O)N[C@@H](Cc1ccccc1)C(N)=O [Compound No. 305] (H-[dY][d4Pal]NSF[azaGly]L[Arg(Me)]F-NH2)    2.0

Read the next record carefully.
Which Specific Act. (EC50/MS10 EC50) value is on record for CNC(=N)NCCC[C@H](NC(=O)[C@H](CC(C)C)NC(=O)NNC(=O)[C@H](Cc1ccccc1)NC(=O)[C@H](CO)NC(=O)[C@H](CC(N)=O)NC(=O)CCc1cccnc1)C(=O)N[C@@H](Cc1ccccc1)C(N)=O [Compound No. 322] ({Propanoyl(3-(3-pyridyl))}-NSF[azaGly]L[Arg(Me)]F-NH2) ?
5.4

* * *

Biological target: hOT7T175 (Homo sapiens)
Construct: expressed in transfected cells
Assay: Intracellular Ca ion level-increasing activity using FLIPR (180 seconds; specific activity to Metastin (1-54))
Format: cell-based
Details: hOT7T175/CHO, change in intracellular calcium ion level for 180 seconds, Tables 21-23
Method: In accordance with the method described in JPA 2000-312590, the intracellular Ca ion level-increasing activity was measured using FLIPR. […] The intracellular Ca ion level-increasing activity of the synthetic peptide in hOT7T175/CHO was determined using FLIPR (Molecular Devices, Inc.). […] Furthermore, 2 vials of Fluo3-AM (50 μg/vial) were dissolved in 21 μL of dimethylsulfoxide and 21 μL of 20% Pluronic acid. […] A change in intracellular calcium ion level for 180 seconds was measured with passage of time.
Starred links: 1 amine or outer side, 2 acyl side, 3 side chain; linkers in the order of their positions; H or OH if unused. Non-standard residues stand in square brackets, D forms with d. Residues, ends and D or L forms follow the SMILES beside them. *: point of attachment. X1 = NC(=O)C[C@@H](C(=O)[*:2])N(C[C@@H](N)Cc1ccc(O)cc1)[*:1]; Cyclohexanecarbonyl = O=C(C1CCCCC1)*; Arg(Me) = CNC(=N)NCCC[C@H](N)C(=O)O; X2 = O=C(Cc1c[nH]c2ccccc12)*; X7 = O=C(c1c[nH]c2ccccc12)*; azaGly = NNC(=O)O
endpointName: intracellular Ca ion level-increasing activity [specific activity to Metastin (1-54)]

Worked cases, answers included:
CNC(=N)NCCC[C@H](NC(=O)[C@H](CC(C)C)NC(=O)NNC(=O)[C@H](Cc1ccccc1)NC(=O)[C@H](CO)NC(=O)[C@H](CC(N)=O)NC(=O)c1c[nH]c2ccccc12)C(=O)N[C@@H](Cc1ccccc1)C(N)=O [Compound No. 265] (X7-NSF[azaGly]L[Arg(Me)]F-NH2)    3
CNC(=N)NCCC[C@H](NC(=O)[C@H](CC(C)C)NC(=O)NNC(=O)[C@H](Cc1ccccc1)NC(=O)[C@H](CO)NC(=O)[C@H](CC(N)=O)NC(=O)[C@H](Cc1c[nH]c2ccccc12)NC(=O)[C@@H](CO)NC(=O)[C@H](N)Cc1ccc(O)cc1)C(=O)N[C@@H](Cc1ccccc1)C(N)=O [Compound No. 287] (H-[dY][dS]WNSF[azaGly]L[Arg(Me)]F-NH2)    2

Which intracellular Ca ion level-increasing activity [specific activity to Metastin (1-54)] value is on record for CNC(=N)NCCC[C@H](NC(=O)[C@H](CC(C)C)NC(=O)NNC(=O)[C@H](Cc1ccccc1)NC(=O)[C@H](CO)NC(=O)[C@H](CC(N)=O)NC(=O)[C@H](Cc1c[nH]c2ccccc12)NC(=O)[C@H](CC(N)=O)NC[C@@H](N)Cc1ccc(O)cc1)C(=O)N[C@@H](Cc1ccccc1)C(N)=O [Compound No. 299] (H-[X1]WNSF[azaGly]L[Arg(Me)]F-NH2) ?
5

Which intracellular Ca ion level-increasing activity [specific activity to Metastin (1-54)] value is on record for CNC(=N)NCCC[C@H](NC(=O)[C@H](CC(C)C)NC(=O)NNC(=O)[C@H](Cc1ccccc1)NC(=O)[C@H](CO)NC(=O)[C@H](CC(N)=O)NC(=O)C1CCCCC1)C(=O)N[C@@H](Cc1ccccc1)C(N)=O [Compound No. 278] (Cyclohexanecarbonyl-NSF[azaGly]L[Arg(Me)]F-NH2) ?
2

Which intracellular Ca ion level-increasing activity [specific activity to Metastin (1-54)] value is on record for CNC(=N)NCCC[C@H](NC(=O)[C@H](CC(C)C)NC(=O)NNC(=O)[C@H](Cc1ccccc1)NC(=O)[C@H](CO)NC(=O)[C@H](CC(N)=O)NC(=O)[C@H](Cc1c[nH]c2ccccc12)NC(=O)[C@H](CC(N)=O)NC(=O)[C@@H](C)N)C(=O)N[C@@H](Cc1ccccc1)C(N)=O [Compound No. 259] (H-[dA]NWNSF[azaGly]L[Arg(Me)]F-NH2) ?
1

Which intracellular Ca ion level-increasing activity [specific activity to Metastin (1-54)] value is on record for CNC(=N)NCCC[C@H](NC(=O)[C@H](CC(C)C)NC(=O)NNC(=O)[C@H](Cc1ccccc1)NC(=O)[C@H](CO)NC(=O)[C@H](CC(N)=O)NC(=O)Cc1c[nH]c2ccccc12)C(=O)N[C@@H](Cc1ccccc1)C(N)=O [Compound No. 266] (X2-NSF[azaGly]L[Arg(Me)]F-NH2) ?
2

Origin of values: patent US8778871B2
